Overview of recorded inhibition at 10 µM for various molecules
molecular target: hAChE (Homo sapiens); construct: purchased Sigma Aldrich; assay: biochemical; conditions: read-out: % inhibition at 10 μM hAChE
Sequence (P22303 32-614): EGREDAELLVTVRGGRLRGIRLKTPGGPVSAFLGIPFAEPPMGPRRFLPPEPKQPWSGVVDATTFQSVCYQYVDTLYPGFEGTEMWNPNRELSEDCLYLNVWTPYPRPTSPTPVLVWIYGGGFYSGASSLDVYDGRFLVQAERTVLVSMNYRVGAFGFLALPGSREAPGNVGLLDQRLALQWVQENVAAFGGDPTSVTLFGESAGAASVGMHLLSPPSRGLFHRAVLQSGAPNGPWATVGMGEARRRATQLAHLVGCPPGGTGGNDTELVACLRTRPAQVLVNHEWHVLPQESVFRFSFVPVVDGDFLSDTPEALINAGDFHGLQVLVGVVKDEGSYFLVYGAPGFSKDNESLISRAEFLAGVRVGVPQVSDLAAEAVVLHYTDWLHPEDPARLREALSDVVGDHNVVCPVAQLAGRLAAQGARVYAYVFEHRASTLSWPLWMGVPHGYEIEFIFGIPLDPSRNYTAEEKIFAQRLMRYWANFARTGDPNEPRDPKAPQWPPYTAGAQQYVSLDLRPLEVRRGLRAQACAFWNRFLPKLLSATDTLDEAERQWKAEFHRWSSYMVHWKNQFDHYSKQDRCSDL

Solved cases (4 shown):
molecule	metric	measurement
CN1CCN(N=Cc2ccco2)CC1 [Compound 16]	inhibition at 10 µM	21%
N#Cc1ccc(-c2ccc(/C=N/c3ccc(O)cc3Cl)o2)cc1 [Compound 9]	inhibition at 10 µM	30%
CS(=O)(=O)c1ccc(NN=Cc2ccc(-c3ccc(C#N)cc3)o2)cc1 [Compound 11]	inhibition at 10 µM	39%
N#Cc1ccc(-c2ccc(/C=N/N3CC(=O)NC3=O)o2)cc1 [Compound 7]	inhibition at 10 µM	28%

Req: I'd like to know its inhibition at 10 µM. The molecule in question is NS(=O)(=O)c1ccc(NN=Cc2ccco2)cc1 [Compound 18]
Resp: 27%
